# testedSystem: recombinant human Tdp1 (tyrosyl-DNA phosphodiesterase 1) (Homo sapiens, UniProt Q9NUW8)
# Construct: recombinant from plasmid pET 16B Tdp1 in Escherichia coli
# Sequence (Q9NUW8 whole entry): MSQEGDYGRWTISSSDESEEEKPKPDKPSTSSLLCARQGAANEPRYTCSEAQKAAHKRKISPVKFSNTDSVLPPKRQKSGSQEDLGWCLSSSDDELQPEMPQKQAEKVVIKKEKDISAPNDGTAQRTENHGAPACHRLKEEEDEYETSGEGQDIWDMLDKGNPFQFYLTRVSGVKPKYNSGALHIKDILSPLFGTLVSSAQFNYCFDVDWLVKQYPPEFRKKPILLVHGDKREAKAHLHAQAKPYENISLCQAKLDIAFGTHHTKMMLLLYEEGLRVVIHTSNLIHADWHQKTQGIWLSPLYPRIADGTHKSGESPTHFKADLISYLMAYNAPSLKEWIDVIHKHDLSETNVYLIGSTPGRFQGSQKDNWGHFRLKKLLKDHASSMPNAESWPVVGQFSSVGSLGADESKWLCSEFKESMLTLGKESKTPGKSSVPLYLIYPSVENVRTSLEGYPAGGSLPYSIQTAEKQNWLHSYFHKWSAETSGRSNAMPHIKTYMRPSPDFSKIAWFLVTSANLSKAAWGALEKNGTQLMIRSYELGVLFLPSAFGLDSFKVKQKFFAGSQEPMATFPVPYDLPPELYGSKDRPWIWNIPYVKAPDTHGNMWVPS
# assaySummary: real-time fluorescence biosensor (FAM-oligonucleotide-BHQ1) cleavage
pIC50: −log10 of the molar value.
endpointName: pIC50

I = O=S(=O)(O)CCSc1nc2ccccc2s1
II = O=S(=O)(O)CCCSc1nc2ccccc2[nH]1
Query string: Smaller pIC50 value? Options are I and II Label of pick, please.
Result string: II
